Provenance of the data: ChEMBL document CHEMBL4390643

# test: Selectivity Index, ratio of IC50 for human DHODH to IC50 for Schistosoma mansoni DHODH
# Format: toxicity
Let's look at some compounds and their measured Ratio IC50.

| chemical_structure | Ratio IC50 |
| --- | --- |
| O=C1C(O)=C(N2CCN(c3cccc(Cl)c3Cl)CC2)C(=O)c2ccccc21 | 4.13 |
| O=C1C(O)=C(Nc2cccc(Cl)c2Cl)C(=O)c2ccccc21 | 6.47 |
| O=C1C(O)=C(N2CCN(c3ccc(Cl)cc3)CC2)C(=O)c2ccccc21 | 20.26 |
| O=C1C(O)=C(Nc2ccc(Cl)cc2)C(=O)c2ccccc21 | 2.92 |
| O=C1C(O)=C(Nc2ccccc2Cl)C(=O)c2ccccc21 | 10.36 |
| O=C1C(O)=C(N2CCN(c3ccccc3)CC2)C(=O)c2ccccc21 | 9.56 |

====

Let's look at some molecules and their measured pIC50.
# measurement_target: Dihydroorotate dehydrogenase (quinone), mitochondrial (Schistosoma mansoni, UniProt G4VFD7)
# Sequence (G4VFD7 whole entry): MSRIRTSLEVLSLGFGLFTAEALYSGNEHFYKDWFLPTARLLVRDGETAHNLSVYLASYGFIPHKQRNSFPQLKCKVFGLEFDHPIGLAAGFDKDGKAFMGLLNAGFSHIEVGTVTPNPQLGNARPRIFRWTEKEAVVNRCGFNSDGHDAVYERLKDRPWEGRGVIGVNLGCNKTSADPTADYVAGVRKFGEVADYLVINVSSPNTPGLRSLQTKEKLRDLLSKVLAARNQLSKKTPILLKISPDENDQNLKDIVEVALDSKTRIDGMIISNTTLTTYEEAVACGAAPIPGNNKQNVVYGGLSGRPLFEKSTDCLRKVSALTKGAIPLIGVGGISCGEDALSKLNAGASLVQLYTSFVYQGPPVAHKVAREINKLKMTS
pIC50: −log10 of the molar value.

| chemical_structure | pIC50 |
| --- | --- |
| COc1ccc(NC2=C(O)C(=O)c3ccccc3C2=O)cc1 | 5.33 |
| CC(C)/C=C/C1=C(O)C(=O)c2ccccc2C1=O | 5.92 |
| CC(C)=CCC1=C(O)C(=O)c2ccccc2C1=O | 7.72 |
| O=C1C(O)=C(Nc2cccc(Cl)c2Cl)C(=O)c2ccccc21 | 7.72 |
| O=C1C(O)=C(N2CCN(c3ccc([N+](=O)[O-])cc3)CC2)C(=O)c2ccccc21 | 6.43 |
